// reported Solubility for each item listed
assay: Solubility in PBS; type: physicochemical; conditions: Solubility (uM)
observable: Solubility

molecule="CC(=O)N1CCC[C@]12CC=CCCCC1(CCCC=CCCCOC(=O)N3CC[C@@](C(=O)N[C@@H](Cc4ccccc4Cl)C(=O)N[C@@H](Cc4csc5ccccc45)C(=O)N[C@@H](CCC(N)=O)C(N)=O)(C3)NC(=O)[C@H](CC(N)=O)NC(=O)[C@H](Cc3ccccc3)NC(=O)[C@H](CCCCNC(C)C)NC(=O)[C@H](C)NC(=O)[C@H](CC(=O)O)NC(=O)[C@H](CC(=O)O)NC1=O)NC(=O)[C@H](CC(C)(C)C)NC(=O)[C@H](CC(=O)O)NC2=O (stereo partly drawn) [I-1132]" reported="49 µM"
molecule="CC(=O)N1CCC[C@]12CC=CCCCC1(CCCC=CCCCOC(=O)N3CC[C@@](C(=O)N[C@@H](Cc4ccccc4Cl)C(=O)N[C@@H](Cc4csc5ccccc45)C(=O)N[C@@H](CCC(N)=O)C(N)=O)(C3)NC(=O)[C@H](CO)NC(=O)[C@H](Cc3ccccc3)NC(=O)[C@H](C)NC(=O)[C@H](CC(C)C)NC(=O)[C@H](CC(=O)O)NC(=O)[C@H](CC(=O)O)NC1=O)NC(=O)[C@H](CC1CCCCC1)NC(=O)[C@H](CC(=O)O)NC2=O (stereo partly drawn) [I-1147]" reported="23 µM"
molecule="CC(=O)N1CCC[C@]12CC=CCCCC1(CCCC=CCCCOC(=O)N3CC[C@@](C(=O)N[C@@H](Cc4ccccc4)C(=O)N[C@@H](Cc4csc5ccccc45)C(=O)N[C@@H](CCC(N)=O)C(N)=O)(C3)NC(=O)[C@H](Cc3ccccc3)NC(=O)[C@H](Cc3ccccc3)NC(=O)[C@H](C)NC(=O)[C@H](C)NC(=O)[C@H](CN(CC(=O)O)CC(F)(F)F)NC(=O)[C@H](CC(=O)O)NC1=O)NC(=O)[C@H](CC(C)(C)C)NC(=O)[C@H](CC(=O)O)NC2=O (stereo partly drawn) [I-988]" reported="11 µM"
